# Test system: Human pancreatic cancer cells (Pancl)
# assay procedure: Cancer cell line growth inhibition assay (DNA content)
# Format: cell-based
# assay setup: Homo sapiens, Pancreatic cancer cell, 72 h; continuous exposure for three days, DNA content per well
value kind: IC50

molecule=O=C(N/N=C/c1cc(-c2ccccc2)ccc1O)c1ccccc1O value_kind=IC50 value="2 to 3 µM"
molecule=COc1ccc(-c2ccsc2)c(/C=N/NC(=O)c2ccccc2O)c1O value_kind=IC50 value="< 1.5 µM"

Now look at this entry.
For record O=C(NNC(=O)c1ccccc1O)c1cccnc1 [TP13, N′-(2-Hydroxybenzoyl)-Nicotinohydrazide] the listed IC50 is > 10 µM
